Test: Stability in mouse liver microsomes assessed as half life at 250 uM in presence of NADPH by HPLC-MS analysis
Format: ADME
MEASUREMENT LABEL: half-life at 250 µM (h)
Give just the numeric value; h need not be written.

Entry CC(C)OC(=O)c1c(NC(=S)Nc2ccc(F)c3ccccc23)sc2c1CCC2 — recorded half-life at 250 µM = 1.5

----------
Overview of recorded pEC50 for various compounds
Molecular target: Toll-like receptor 2 (Homo sapiens)
Sequence (O60603 whole entry): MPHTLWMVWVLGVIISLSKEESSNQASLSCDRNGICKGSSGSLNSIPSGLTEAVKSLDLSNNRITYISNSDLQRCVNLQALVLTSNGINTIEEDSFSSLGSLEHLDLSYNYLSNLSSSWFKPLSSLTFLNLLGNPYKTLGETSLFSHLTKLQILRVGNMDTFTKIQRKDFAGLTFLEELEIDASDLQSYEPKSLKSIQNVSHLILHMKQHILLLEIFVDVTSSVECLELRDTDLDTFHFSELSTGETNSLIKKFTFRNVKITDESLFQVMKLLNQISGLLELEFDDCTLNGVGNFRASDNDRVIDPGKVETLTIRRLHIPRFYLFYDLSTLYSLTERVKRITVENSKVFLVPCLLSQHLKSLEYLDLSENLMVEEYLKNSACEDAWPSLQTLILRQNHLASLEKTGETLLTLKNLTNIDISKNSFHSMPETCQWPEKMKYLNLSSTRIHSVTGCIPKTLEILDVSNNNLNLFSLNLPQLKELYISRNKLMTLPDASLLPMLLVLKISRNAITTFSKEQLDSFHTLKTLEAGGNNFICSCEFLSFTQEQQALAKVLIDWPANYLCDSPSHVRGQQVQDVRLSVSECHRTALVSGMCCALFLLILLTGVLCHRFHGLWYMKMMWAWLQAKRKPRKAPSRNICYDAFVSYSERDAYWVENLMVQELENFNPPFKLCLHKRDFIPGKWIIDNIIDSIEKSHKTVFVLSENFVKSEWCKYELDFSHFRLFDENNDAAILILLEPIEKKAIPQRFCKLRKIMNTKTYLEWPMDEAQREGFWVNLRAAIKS
Experiment: Agonist activity at TLR2 in HEK-Blue cells incubated for 24 hrs by Quanti-Blue based SEAP assay
Bear in mind: pEC50 is minus log10 of a mol/L concentration; give just that figure.

>  <MOLECULE SMILES>
CCOC(=O)c1c(NC(=O)Nc2cccc3ccccc23)sc2c1CCCC2

>  <pEC50>
5.23

$$$$
>  <MOLECULE SMILES>
CCCOC(=O)c1c(NC(=S)Nc2cccc3ccccc23)sc2c1CCC2

>  <pEC50>
6.09

$$$$
>  <MOLECULE SMILES>
CCOC(=O)c1c(NC(=S)Nc2ccccc2)sc2c1CCC2

>  <pEC50>
5.23

$$$$

# value of pEC50, Toll-like receptor 2 (Homo sapiens), item COC(=O)c1c(NC(=S)Nc2ccccc2)sc2c1CCCC2 = 4.83
